- assayTarget: T1, hiR2-FL-K536A-T7 (human) (UniProt Q6PJF5)
- T1 sequence: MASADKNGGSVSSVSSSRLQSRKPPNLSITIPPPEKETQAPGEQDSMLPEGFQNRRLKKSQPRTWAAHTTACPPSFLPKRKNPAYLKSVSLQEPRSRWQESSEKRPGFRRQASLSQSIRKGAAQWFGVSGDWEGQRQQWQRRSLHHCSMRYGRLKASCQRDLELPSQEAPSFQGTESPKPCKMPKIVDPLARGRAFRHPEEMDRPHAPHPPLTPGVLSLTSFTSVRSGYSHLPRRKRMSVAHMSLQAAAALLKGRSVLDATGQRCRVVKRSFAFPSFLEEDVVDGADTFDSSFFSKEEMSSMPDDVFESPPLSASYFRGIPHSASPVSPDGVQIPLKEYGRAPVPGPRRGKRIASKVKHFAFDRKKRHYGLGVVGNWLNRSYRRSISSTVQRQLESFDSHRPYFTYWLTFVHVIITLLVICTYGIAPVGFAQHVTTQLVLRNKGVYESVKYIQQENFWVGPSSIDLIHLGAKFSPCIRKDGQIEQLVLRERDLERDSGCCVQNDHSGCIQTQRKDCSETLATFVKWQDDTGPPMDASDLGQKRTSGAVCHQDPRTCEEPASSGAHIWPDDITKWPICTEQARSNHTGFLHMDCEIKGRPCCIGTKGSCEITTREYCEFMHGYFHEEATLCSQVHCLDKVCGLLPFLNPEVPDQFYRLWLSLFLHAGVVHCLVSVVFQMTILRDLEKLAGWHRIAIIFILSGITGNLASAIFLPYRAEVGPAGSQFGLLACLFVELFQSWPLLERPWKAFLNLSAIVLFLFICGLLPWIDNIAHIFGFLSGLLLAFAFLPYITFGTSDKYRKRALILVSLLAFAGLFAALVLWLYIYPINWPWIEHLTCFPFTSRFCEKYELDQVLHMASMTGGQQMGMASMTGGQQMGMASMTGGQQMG
- experimentDescription: FACS on MEF-DKO cells expressing the variant, 3 µg/ml antibody
readoutLabel: loss of binding vs wild type

INPUT: Quickly give me recorded loss of binding vs wild type for antibody 22 (antibody, V domains shown) VH: QVTLKESGPGILQPSQTLSLTCSFSGFSLSTFGMGVGWIRQPSGKGLEWLAHIWWDDEKYYNSALKSRLTISKATSKNQVFLKIANVDTADTATYYCARISNYGSNYWYFNVWGTGTTVTVSS VL: QVVLTQSPALMSASPGEKVTMTCSAGSSVSYMYWYQQKPGSSPRVLIYDTSNLASGVPARFTGSGSGTSYSLTISRMEAEDAATYYCQQWNSYPLTFGAGTKLELK
OUTPUT: > 95%

INPUT: Quickly give me recorded loss of binding vs wild type for antibody 44 (antibody, V domains shown) VH: QVTLKESGPGILQPSQTLSLTCSFSGFSLSTFGMGVGWIRQPSEKGLEWLAHIWWDDDKYYNPALKSRLTISKDTSKNQIFLKITNVDTAETATYYCSRIGNYGSNYWYFDVWGTGTTVTVSS VL: QIVLTQSPAVMSASPGEKVTMTCTASSSVYYMYWYQQTPGSSPRLLIYDTSNLASGVPVRFSGSGSGTSYSLTISRMEAEDAATYYCQQWNTYPLTFGAGTKLELK
OUTPUT: > 95%

INPUT: Quickly give me recorded loss of binding vs wild type for antibody 42 (antibody, V domains shown) VH: QVTLKESGPGILQPSQTLSLTCSLSGFSLSTFGRGVGWIRQPSGKGLEWLAHIWWDDEKYYNPALKSRLTISKDTSKNQVFLRIANVDTADTATYYCARIQNYGSNYWYFDVWGTGTTVTVSS VL: LIVLTQSPAIMSASPGEKVTMTCGATSRISYMFWYQQKPGSSPRVLIYDTSNLASGVPVRFSGSGSGTSYSLTISRVEAEDVATYYCQQWNSYPLTFGAGTKLELK
OUTPUT: > 95%

These data points were gathered from patent US20240287172A1.
